# Tested on: T. vaginalis
# PROTOCOL_DESCRIPTION: Medium-throughput (MTS) confirmatory dose-response growth assay, T. vaginalis
# Assay type: cell-based, Trichomonas vaginalis
# TEST_CONTEXT: 96-well, 10,000 cells/mL in 50 μL, 48 h, mean ± SEM; >10 = no appreciable activity at highest dose
# Method: For microtiter plate assays, trichomonads were grown in anaerobic conditions within GasPak EZ anaerobe pouches with fresh anaerobic sachets. […] Chromogen absorbance was monitored at 570 nm on an absorbance microplate reader after plates were allowed to equilibrate in atmospheric conditions at room temperature for at least 5 min. After absorbances were measured, data were processed as followed unless indicated otherwise in the text. […]
Kindly state IC50 for each of the entries shown.

Answered cases to consult:
CC(C=CC(=O)NOC1OC(CO)C(O)C(O)C1O)=CC(C)C(=O)c1ccc(N(C)C)cc1 (stereo not drawn) [Trichostatin C, trichostatin C, reference compound] = > 10 µM
COc1ccc2cc1Oc1cc(ccc1O)[C@H](O)[C@]13SS[C@@]4(C(=O)N1C)[C@H](O)C1=COC=C[C@H](OC2=O)[C@H]1N4C3=O [Emestrin, emestrin, reference compound] = > 10 µM

Switching to the query record.
Task: If you can, please state the reported IC50 value of CC(C=CC1OC(=O)C=CC1C)=CC(C)CC=CC(C)=CC(C)C(=O)C(C)C(O)C(C)CC(C)=CC(=O)O (stereo not drawn) .
Output: > 10 µM
